# system: DLL3 endogenously expressed on NCI-H82 cells (UniProt Q9NYJ7)
# Sequence (Q9NYJ7 27-618): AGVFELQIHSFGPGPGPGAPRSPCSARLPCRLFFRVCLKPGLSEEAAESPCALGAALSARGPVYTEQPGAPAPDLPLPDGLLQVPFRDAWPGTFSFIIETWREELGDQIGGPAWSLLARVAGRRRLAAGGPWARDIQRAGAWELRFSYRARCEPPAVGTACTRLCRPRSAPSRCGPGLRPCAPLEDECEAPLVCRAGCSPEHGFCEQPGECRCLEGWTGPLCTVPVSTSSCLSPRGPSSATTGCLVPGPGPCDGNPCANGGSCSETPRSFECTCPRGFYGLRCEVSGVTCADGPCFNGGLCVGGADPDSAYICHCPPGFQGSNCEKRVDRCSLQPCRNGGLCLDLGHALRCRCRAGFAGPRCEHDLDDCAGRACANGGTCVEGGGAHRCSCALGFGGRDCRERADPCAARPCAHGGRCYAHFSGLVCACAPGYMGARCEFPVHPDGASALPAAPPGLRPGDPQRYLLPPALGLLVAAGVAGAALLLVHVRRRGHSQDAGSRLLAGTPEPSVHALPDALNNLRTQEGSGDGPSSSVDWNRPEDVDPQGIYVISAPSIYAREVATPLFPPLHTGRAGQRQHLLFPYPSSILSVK
# protocolDescription: FACS on NCI-H82 cells; antibody 100 nM
endpointName: MFI

MFI in this record for Hab006VL4VH2-hFc (Fc fusion, part only; not given: Linker and human IgG1 Fc, not shown: a dimerising Fc or GST) chain, part: DIVMTQSPDSLAVSLGERATINCRATKSISKYLAWYQQKPGQTNKLLIFSGSTLQSGVPDRFSGSGSGTDFTLTISSLQAEDVAVYYCQQHHEYPYTFGGGTKVEIKEVQLVQSGAEVKKPGASVKVSCKASGYTFTSYWMHWVRQAPGQRLEWMGVIDPSDSLANYNQEFKGRVTLTVDTSASTAYMELSSLRSEDTAVYYCARDSTVVAPMDYWGQGTTVTVSS : 588

Sure, the documented MFI for Hab009VL2aVH1-hFc (Fc fusion, part only; not given: Linker and human IgG1 Fc, not shown: a dimerising Fc or GST) chain, part: DIVMTQSPLSLPVTPGEPASISCRASQTISDYLHWYLQKPGQSPRLLIKYASQSISGVPDRFSGSGSGTDFTLKISRVEAEDVGVYYCQQGHSFPLTFGQGTKLEIKEVQLVQSGAEVKKPGASVKVSCKASGYTFTSYWMHWVRQAPGQRLEWMGTIYPGNSDTRYNQKFKDRVTITADTSASTAYMELSSLRSEDTAVYYCTRSYDYGDLDYWGQGTTVTVSS is 870

Measured MFI of mab008 scFv-hFc (Fc fusion, part only; not given: linker and human IgG1 Fc, not shown: a dimerising Fc or GST) chain, part: DIVMTQSQKFMSTSVGDRVSITCKASQNVGTAVAWYQQKPGQSPKLLIFSASIRYTGVPDRFTGSGSGTDFTLTISNMQSEDLADYFCQQYSSSPYTFGGGTKLEIKEVQLQQSGPVLVKPGASVKMSCKASGYTFTDYYMNWVKRSHGKSLEWIGIINPYNGGTSYNQKFRGKATLTVDKSSNTAYMELNSLTSEDSAVYYCSRYDYDYDVEGAMDYWGQGTSVTVSS : 537

MFI reported for this binder Hab008L3H2a-hFc (scFv, part only; not given: VL-VH linker and human IgG1 Fc, V domains shown, not shown: another chain or arm of the molecule; a dimerising Fc or GST; small tags and cut ends) VL: DIVMTQSPDSLAVSLGERATINCKASQNVGTAVAWYQQKPGQSPKLLIFSASIRYTGVPDRFSGSGSGTDFTLTISSLQAEDVAVYYCQQYSSSPYTFGGGTKVEIK VH: EVQLVQSGAEVKKPGASVKVSCKASGYTFTDYYMNWVRQAPGQRLEWMGIINPYNSGTSYNQKFRGRVTLTVDKSASTAYMELSSLRSEDTAVYYCSRYDYDYDVEGAMDYWGQGTTVTVSS : 550

Quick note, MFI for Hab015VL5VH6a-hFc (scFv, part only; not given: scFv linker and human IgG1 Fc, V domains shown, not shown: another chain or arm of the molecule; a dimerising Fc or GST; small tags and cut ends) VL: NIQMTQSPSSLSASVGDRVTITCKASENVGTYVSWYQQKPGKSPKLLIYGASNRYTGVPSRFSGSGSGTDFTLTISSLQPEDFATYYCGQFYSFPSTFGGGTKVEIK VH: EVQLVESGGGLVKPGGSLRLSCAASGITFSNFWMNWVRQAPEKGLEWVGQIRLKSDDYATHYAESVKGRFTISREDSKNTVYLQMNSLKTEDTAVYYCTTGYYFDYWGQGTTVTVSS landed at 1220

MFI measured on Hab006VL4VH1-hFc (scFv, part only; not given: scFv linker and human IgG1 Fc, V domains shown, not shown: another chain or arm of the molecule; a dimerising Fc or GST; small tags and cut ends) VL: DIVMTQSPDSLAVSLGERATINCRATKSISKYLAWYQQKPGQTNKLLIFSGSTLQSGVPDRFSGSGSGTDFTLTISSLQAEDVAVYYCQQHHEYPYTFGGGTKVEIK VH: EVQLVQSGAEVKKPGASVKVSCKASGYTFTSYWMHWVRQAPGQRLEWMGVIDPSDSLANYNQEFKGRVTITVDTSASTAYMELSSLRSEDTAVYYCARDSTVVAPMDYWGQGTTVTVSS = 596

MFI for Hab014VL3VH1-hFc (scFv, part only; not given: VL-VH linker and human IgG1 Fc, V domains shown, not shown: another chain or arm of the molecule; a dimerising Fc or GST; small tags and cut ends) VL: DIVMTQSPDSLAVSLGERATINCKASEDIYNRLAWYQQKPGQTPKLLISGATSLETGVPDRFSGSGSGKDFTLTISSLQAEDVAVYYCQQYWSLPWTFGGGTKVEIK VH: EVQLVQSGAEVKKPGASVKVSCKASGYTFTDYYMNWVRQAPGQRLEWMGDINPNHGDTGYNQKFTGRVTITVDKSASTAYMELSSLRSEDTAVYYCARNFFYYGTTYGWYFDVWGQGTTVTVSS is 1030

get_value(item= Hab015VL5VH5a-hFc (scFv, part only; not given: scFv linker and human IgG1 Fc, V domains shown, not shown: another chain or arm of the molecule; a dimerising Fc or GST; small tags and cut ends) VL: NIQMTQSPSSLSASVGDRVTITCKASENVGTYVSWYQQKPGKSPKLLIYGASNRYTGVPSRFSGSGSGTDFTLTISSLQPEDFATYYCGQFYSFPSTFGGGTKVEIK VH: EVQLVESGGGLVKPGGSLRLSCVASGITFSNFWMNWVRQAPGKGLEWVGQIRLKSDDYATHYAESVKGRFTISREDSKNTVYLQMNSLKTEDTAVYYCTTGYYFDYWGQGTTVTVSS , readout=MFI) returns 1110

Lab book: MFI of Hab014VL2VH1-hFc (scFv, part only; not given: scFv linker and human IgG1 Fc, V domains shown, not shown: another chain or arm of the molecule; a dimerising Fc or GST; small tags and cut ends) VL: DIQMTQSPSSLSASVGDRVTITCKASEDIYNRLAWYQQKPGKVPKLLISGATSLETGVPSRFSGSGSGKDFTLTISSLQPEDVATYYCQQYWSLPWTFGGGTKVEIK VH: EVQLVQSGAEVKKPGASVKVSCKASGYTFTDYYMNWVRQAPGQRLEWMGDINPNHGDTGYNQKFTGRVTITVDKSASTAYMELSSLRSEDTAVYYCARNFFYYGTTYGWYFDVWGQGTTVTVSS noted as 1110

MFI recorded for this binder, Hab015VL4VH1b-hFc (scFv, part only; not given: VL-VH linker and human IgG1 Fc, V domains shown, not shown: another chain or arm of the molecule; a dimerising Fc or GST; small tags and cut ends) VL: NIVLTQSPATLSLSPGERATLSCKASENVGTYVSWFQQKPGQSPRLLIYGASNRYTGIPARFSGSGSGTDFTLTISSLEPEDFAVYYCGQFYSFPSTFGGGTKVEIK VH: EVQLVESGGGLVKPGGSLRLSCAASGITFSNFWMNWVRQAPGKGLEWVGQIRLKSEDYATHYAESVKGRFTISREDSKNTVYLQMNSLKTEDTAVYYCTTGYYFDYWGQGTTVTVSS , is 1410

Value of MFI reported for the binder mab015 scFv-hFc (Fc fusion, part only; not given: linker and human IgG1 Fc, not shown: a dimerising Fc or GST) chain, part: NIVMTQSPKSMSMSVGERVTLSCKASENVGTYVSWFQQKPEQSPKLLIYGASNRYTGVPDRFTGSGSATDFTLTISSVQAEDLADYHCGQFYSFPCTFGGGTKLEIKEVKLEESGGGLVQPGGSMKLSCVASGITFSNFWMNWVRQSPEKGLEWVAQIRLKSDDYATHYAESVKGRFTISRDDSKGSVYLQMNNLRTEDTGIHYCTTGYYFDYWGQGTTLTVSS is 1680

Origin of the recorded values: patent EP4786492A1
